Origin of values: ChEMBL document CHEMBL4229520

System: Bacillus subtilis
Test: Antibacterial activity against Bacillus subtilis after 12 to 14 hrs
Format: functional
attribute measured: MIC

Some molecules with known MIC results, for comparison:
- molecule: "COc1ccc2c(c1)c1ccnc3ccc(=O)n2c31"
  target or system: "Bacillus subtilis"
  MIC: "8 µg/mL"
- molecule: "COc1ccc2[nH]c3cnccc3c2c1"
  target or system: "Bacillus subtilis"
  MIC: "> 64 µg/mL"
- molecule: "COc1ccc2c(c1)c1ccnc3c1n2CCC3"
  target or system: "Bacillus subtilis"
  MIC: "> 64 µg/mL"
- molecule: "CO/N=C(\\C(=O)N[C@@H]1C(=O)N2C(C(=O)[O-])=C(COC(C)=O)CS[C@H]12)c1csc(N)n1.[Na+] [CEFOTAXIME SODIUM]"
  target or system: "Bacillus subtilis"
  MIC: "2 µg/mL"
- molecule: "COc1ccc2c(c1)c1c3n2C(=O)CCC3NCC1 (configuration not stated)"
  target or system: "Bacillus subtilis"
  MIC: "> 64 µg/mL"
- molecule: "C#CCOc1ccc2c(c1)c1ccnc3ccc(=O)n2c31"
  target or system: "Bacillus subtilis"
  MIC: "> 64 µg/mL"

Task: Can you look up the measured MIC of O=C1CCC2(SCCS2)c2cc3ccccc3n21 for me?
Result: > 64 µg/mL

Task: Which MIC value belongs to O=C1C=CC(=O)n2c1cc1ccccc12 ?
Result: 2 µg/mL

###

Experiment: Selectivity index, ratio of IC50 for human L02 cells to MIC for Ralstonia solanacearum
Assay type: toxicity
Conditions: read-out: Selectivity Index
attribute measured: selectivity ratio
Answer using only a numeral; do not append any unit.

Task: // query selectivity ratio value for entry O=C1C=CC(=O)n2c1cc1ccccc12
Result: 4

###

Experiment: Selectivity index, ratio of IC50 for human SGC7901 cells to MIC for Bacillus cereus
Assay type: toxicity
Details: read-out: Selectivity Index
attribute measured: selectivity ratio

Task: What does the record list as selectivity ratio for O=C1C=CC(=O)n2c1cc1ccccc12 ?
Result: 4.9

###

# MIC per entry
Test system: Bacillus cereus
Test: Antibacterial activity against Bacillus cereus after 12 to 14 hrs
Assay type: functional
Kindly answer with a numeric value in µg/mL, unit omitted.

Task: Query for Bacillus cereus: what MIC does the record show for O=c1ccc2nccc3c4cc(O)ccc4n1c23 ?
Result: 16

Task: Under Bacillus cereus: MIC value of C[C@@H]1O[C@@H]1P(=O)([O-])[O-].[Na+].[Na+] [PHOSPHOMYCIN DISODIUM] ?
Result: 4

Task: Identify the measured MIC of O=C1CCC(O)c2cc3ccccc3n21 (configuration not stated) for Bacillus cereus.
Result: 16

Task: Under Bacillus cereus: MIC value of COc1ccc2c(c1)c1ccnc3ccc(=O)n2c31 ?
Result: 4

Task: Please provide the recorded MIC for O=C1CCC(=O)n2c1cc1ccccc12 , tested on Bacillus cereus.
Result: 16

Task: Please tell me: MIC of C#CCOc1ccc2c(c1)c1ccnc3ccc(=O)n2c31 , system Bacillus cereus?
Result: 8

###

Assay: Selectivity index, ratio of IC50 for human L02 cells to MIC for Bacillus cereus
Type: toxicity
Settings: read-out: Selectivity Index
attribute measured: selectivity ratio
// return a plain number; no unit text

Task: Any idea what selectivity ratio was measured for O=C1C=CC(=O)n2c1cc1ccccc12 ?
Result: 4.9

###

Test: Selectivity index, ratio of IC50 for human SGC7901 cells to MIC for Ralstonia solanacearum
Assay type: toxicity
Settings: read-out: Selectivity Index
attribute measured: selectivity ratio
Write the value as a bare number.

Task: # query: selectivity ratio of entry O=C1C=CC(=O)n2c1cc1ccccc12
Result: 4

###

Test: Cytotoxicity against human L02 cells assessed as cell viability at 4 ug/ml after 48 hrs by MTT assay relative to control
Type: cell-based
Settings: read-out: Activity
attribute measured: viability at 48 h, 4 ug/ml (%)
Only the number, expressed in %, is required.

Task: Entry under review: O=C1C=CC(=O)n2c1cc1ccccc12 . Reported viability at 48 h, 4 ug/ml?
Result: 89

###

Assay: Selectivity index, ratio of IC50 for human HeLa cells to MIC for Ralstonia solanacearum
Format: toxicity
Conditions: read-out: Selectivity Index
attribute measured: selectivity ratio

Task: Which selectivity ratio reading was recorded for the compound O=C1C=CC(=O)n2c1cc1ccccc12 ?
Result: 4.4

###

Test system: Bacillus subtilis
Experiment: Antibacterial activity against Bacillus subtilis after 12 to 14 hrs
Type: functional
// reported MIC per item

- entry smiles: "COc1ccc2[nH]c3c(C=O)nccc3c2c1"
  MIC: "> 64 µg/mL"
- entry smiles: "O=c1ccc2nccc3c4cc(OCc5cn(Cc6ccccc6)nn5)ccc4n1c23"
  MIC: "> 64 µg/mL"

Attention now turns to another entry.
Task: What MIC appears in the records for this compound with Bacillus subtilis? O=C1CCCc2cc3ccccc3n21
Result: > 64 µg/mL
